System: RARb:RXRa (NR concentration 270 nM, RXRa partner concentration 90 nM)
Experiment: PBM binding z-score (relative to random genomic background probes); higher = stronger binding; sequences stand for … in GC…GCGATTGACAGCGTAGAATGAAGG
The threshold is inclusive: PBM binding z-score of exactly 2 counts as 1; values below receive 0.

> print(dat)
                         sequence.code  assigned.class
 1  ATATGTAGGTTAGCTGGGGTCAATCAGACTAGGC               1
 2  TCTTGTAGATCAGCACGTTAAGAAAGCTGGCCAA               0
 3  CTCGAAAGGTCGTGCTCCGGTGAGTATACCAAAC               1
 4  GCTTGTAGATCCAGGTTAAGAAAGACTAAGCTAA               0
 5  ACTCGGAGGACAAAGGTCTGAGCTACGCCAGTGA               0
 6  CCTAGCAGACCAGGGTCACTCAAGCATTTCGCTT               1
 7  GCGACTGGGGCAAAGTAGGTTACCATAAGGTTGG               0
 8  TCTAGTAGTTGAAGGGCAACCGACGAGTCCGTTT               0
 9  CCTTACGGGTCAAGGTTATAGCACGGGTGGTACG               1
10  CGTCAAAGTTCCACTAAGGTAACGTAAAGCACGC               0
11  GCTCGGAGGACGAGGTCAGAGCTTTGTCCGTAGA               1
12  ACAGACAGGTGAGTGAAGTTAACTCAGCTGGACG               0
13  ATGTCTAGGTAACAAGTTCAGTGAAAGAGAGGAC               0
14  CCTGCTAGGTCAATGGTCAGCGAAAGCAGCTCGC               1
15  TTACCAAGGTGAAGGTCGTTGGTCCCTCTGTAGA               1
16  TCGAGTAGGTTACCAATGGGGCATTCACCTTTCT               0
17  CGAACTAGGTCATCCAGGACAGCGAATACATTGA               1
18  CCTTACGGGTCACTCCAGTTTATAGCATCGGAGT               1
19  ATCTCTAGGTAAAATTTCAGTGAATCCCGAGGAT               0
20  GCGACTGGGGCATCAGCAGGTTACTATAACTTAA               0
21  GCTTGTAGATCAAGGATAAGAAAGACTAAGCTAA               0
22  CCTACTGGGCCACGAATGGTCATTGATTCAGTGA               0
23  CGTCCAAGGTCAATGCTAGGTCAGTGAAAGCATT               1
24  TCTCGGTGGACACGAAGGTCAGAGCTTTCCAGAG               1
25  ACAGACAGGGGAGTGAAGGTAACTCAGCTGGACG               0
26  GCAGACAGGTGTAACGCAGGTAACTCAGGGTGGC               0
27  CAAACTAGTTCAAAGGTCAAAGTCGAGCCAACCA               1
28  ACTAGTTGGGCAGCTGAGGTCACACACAATTCGG               1
